# test: Photostability under UV exposure
# Type: physicochemical
# cond: Tableau 1; UV exposure λ 300 nm, P 8.32 W/m^2, one hour
Task for the reader: assign each of the following compounds its reported Perte d'activité (%).

See these solved cases before continuing.
Can you look up the measured Perte d'activité (%) of "CC1(C)OC(=O)C(=Cc2cc3ccccc3o2)C(=O)O1" for me?
28,7%

For the compound shown here, "CC1(C)OC(=O)C(=Cc2ccc(C=C3C(=O)OC(C)(C)OC3=O)o2)C(=O)O1" , give the reported Perte d'activité (%).
12,4%

Query: Perte d'activité (%); subject: "CC1(C)OC(=O)C(=Cc2ccco2)C(=O)O1"
< 5%

Returns the measured Perte d'activité (%) for the input compound. Input: COc1ccc(C(=O)CC(=O)c2ccc(C(C)(C)C)cc2)cc1 [Avobenzone, reference compound]
0,6%

Below is a list of compounds. For each, state its recorded Perte d'activité (%).
1. CC(=O)OCc1ccc(C=C2C(=O)OC(C)(C)OC2=O)o1
2. CCc1ccc(C=C2C(=O)OC(C)(C)OC2=O)o1
3. CC1(C)OC(=O)C(=Cc2ccc(CO)o2)C(=O)O1
4. Cc1cc(C=C2C(=O)OC(C)(C)OC2=O)oc1C

["12,0%", "< 5%", "< 5%", "< 5%"]

* * *

# test: UV-Vis absorption spectrum (anti-UVA and blue light properties)
# Format: physicochemical
# Design: unit not given here
# cond: Tableau 1
metric-name: λmax
Answers are plain numbers.

Bench note: what λmax did Cc1cc(C=C2C(=O)OC(C)(C)OC2=O)oc1C [compound 2] show?
400

Hi, could you look up λmax for each item in my list?
1. CC1(C)OC(=O)C(=Cc2ccc(CO)o2)C(=O)O1 [compound 4]
2. CC(=O)OCc1ccc(C=C2C(=O)OC(C)(C)OC2=O)o1 [compound 6]
3. CC1(C)OC(=O)C(=Cc2cc3ccccc3o2)C(=O)O1 [compound 5]
4. COc1ccc(C(=O)CC(=O)c2ccc(C(C)(C)C)cc2)cc1 [Avobenzone, reference compound]
5. CCc1ccc(C=C2C(=O)OC(C)(C)OC2=O)o1 [compound 3]
6. CC1(C)OC(=O)C(=Cc2ccco2)C(=O)O1 [Composé 1]

1. 374
2. 366
3. 386
4. 350
5. 374
6. 361

* * *

# test: Photostability under UV exposure
# Format: physicochemical
# cond: Tableau 1; absorbance before UV exposure
I'd be grateful if you could share measured A (t=0 min) for these entries.

// returns reported A (t=0 min) for input "CC1(C)OC(=O)C(=Cc2ccc(CO)o2)C(=O)O1"
0,28814

Quick batch: A (t=0 min) for everything below.
1. CC1(C)OC(=O)C(=Cc2ccco2)C(=O)O1
2. CC1(C)OC(=O)C(=Cc2cc3ccccc3o2)C(=O)O1
3. CC1(C)OC(=O)C(=Cc2ccc(C=C3C(=O)OC(C)(C)OC3=O)o2)C(=O)O1
4. Cc1cc(C=C2C(=O)OC(C)(C)OC2=O)oc1C

1: 0.3381; 2: 0,32310; 3: 0,47642; 4: 0,37961

Value sought for every listed molecule: A (t=0 min).
1. CCc1ccc(C=C2C(=O)OC(C)(C)OC2=O)o1
2. CC(=O)OCc1ccc(C=C2C(=O)OC(C)(C)OC2=O)o1
3. COc1ccc(C(=O)CC(=O)c2ccc(C(C)(C)C)cc2)cc1 [Avobenzone, reference compound]

1. 0,31307
2. 0,28728
3. 0,36735

Where do the numbers come from? From patent EP4061322B1.
